target: galectin-1 (Homo sapiens, UniProt P09382); test: Fluorescence anisotropy assay, affinity for galectin-1; conditions: compound as inhibitor of the interaction between galectin and a fluorescein tagged saccharide probe; read-out: Gal-1 Kd
Sequence (P09382 whole entry): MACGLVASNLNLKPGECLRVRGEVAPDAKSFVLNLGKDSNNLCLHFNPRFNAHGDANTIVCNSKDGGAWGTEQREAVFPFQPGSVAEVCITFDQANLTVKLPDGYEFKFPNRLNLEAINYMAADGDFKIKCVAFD
pKd: −log10 of the molar value.
Would you please tag the item Met when its pKd is 7 or above, and Not met when it is below?

OCC1O[C@@H](c2ccnn2-c2cc(Br)c(F)cc2C(F)(F)F)C(O)[C@@H](n2cc(-c3nc(Cl)cs3)nn2)[C@H]1O (stereo partly drawn)
Met
Cc1cc([C@@H]2OC(CO)[C@H](O)C(n3cc(-c4nc(Cl)cs4)nn3)C2O)n(-c2cc(Cl)ccc2C(F)(F)F)n1 (stereo partly drawn)
Met
COC1C(n2cc(-c3nc(Cl)cs3)nn2)[C@@H](O)C(CO)O[C@H]1c1ccnn1-c1cc(Cl)c(F)cc1C(F)(F)F (stereo partly drawn)
Met
COC1C(n2cc(-c3nc(Cl)cs3)nn2)[C@@H](O)C(CO)O[C@H]1c1ccnn1-c1cc(Cl)c(Cl)cc1C(F)(F)F (stereo partly drawn)
Met
OCC1O[C@@H](c2ccnn2-c2cc(Cl)ccc2C(F)(F)F)C(O)C(n2cc(-n3ccc(Cl)n3)nn2)[C@H]1O (stereo partly drawn)
Not met

Alright, here's another molecule for you.
Q. pKd >= 7 for COC1C(n2cc(-c3nc(Cl)cs3)nn2)[C@@H](O)C(CO)O[C@H]1c1cc(C)nn1-c1cc(Cl)ccc1C(F)(F)F (stereo partly drawn) ?
A. Met
